Provide the recorded WBC count for the entries that follow.
# test: Hematology assays in cynomolgus monkeys (Example 46)
# Assay type: in vivo
# condition_notes: Day 45
Strand notation (5' to 3'): a small letter for the sugar, then the base; units joined by * are phosphorothioate-linked, units joined directly phosphodiester-linked; [ ] holds rarer units or linkages, { } end groups; capitals alone tell only the bases. e = 2'-O-(2-methoxyethyl) (MOE); [5mC] = 5-methylcytosine; d = 2'-deoxy (DNA)
Enter your answer as a number in µL⁻¹; do not include the unit.

Request: Please give the documented WBC count of ISIS 449710: 3-8-3, 4-8-4, 2-10-2, 3-10-3 or 4-10-4 MOE microwalk gapmer (Table 46) (antisense e[5mC]*eA*e[5mC]*dA*dG*dT*dT*dT*d[5mC]*dT*dG*dG*d[5mC]*eA*eG*eG)
Result: 11000

Request: Please give the documented WBC count of ISIS 449711: 3-8-3, 4-8-4, 2-10-2, 3-10-3 or 4-10-4 MOE microwalk gapmer (Table 46) (antisense eA*e[5mC]*dA*dG*dT*dT*dT*d[5mC]*dT*dG*dG*d[5mC]*eA*eG)
Result: 9000

Request: Please give the documented WBC count of ISIS 449708: 3-8-3, 4-8-4, 2-10-2, 3-10-3 or 4-10-4 MOE microwalk gapmer (Table 46) (antisense eA*e[5mC]*eA*dG*dT*dT*dT*d[5mC]*dT*dG*dG*e[5mC]*eA*eG)
Result: 10000

Request: Please give the documented WBC count of ISIS 445522: 5-8-5 or 6-8-6 MOE microwalk gapmer (Table 44) (antisense eG*e[5mC]*eA*e[5mC]*eA*dG*dT*dT*dT*d[5mC]*dT*dG*dG*e[5mC]*eA*eG*eG*e[5mC])
Result: 10000
